Test system: MARIMO
Assay: cell viability relative to vehicle control; higher = less cytotoxic;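 also: after 48 h exposure read by CellTiter-Glo luminescence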
Settings: 10 µM; SRSF2 genotype: SRSF2 P95H/wt
Quick reference for cell viability among some molecules
READOUT_NAME: cell viability (%)

>  <MOLECULE>
Cn1cnc(=N)c2[nH]cnc21

>  <READOUT_NAME>
cell viability

>  <TEST_VALUE>
82.6

$$$$
>  <MOLECULE>
NC(=O)c1ccc[n+]([O-])c1 [Nicotinamide N-oxide]

>  <READOUT_NAME>
cell viability

>  <TEST_VALUE>
107

$$$$
>  <MOLECULE>
COc1ccc(-c2oc3c(CC=C(C)C)c(O[C@@H]4O[C@H](CO)[C@@H](O)[C@H](O)[C@H]4O)cc(O)c3c(=O)c2O[C@@H]2O[C@@H](C)[C@H](O)[C@@H](O)[C@H]2O)cc1

>  <READOUT_NAME>
cell viability

>  <TEST_VALUE>
98.7

$$$$
>  <MOLECULE>
C[C@H]1CNCCCN1S(=O)(=O)c1cccc2cncc(F)c12

>  <READOUT_NAME>
cell viability

>  <TEST_VALUE>
101

$$$$
>  <MOLECULE>
Cc1c(C(=O)Nc2ccc(N3CCC(N4CCOCC4)CC3)c(C#N)c2)cnn1-c1ccc(Cl)cc1

>  <READOUT_NAME>
cell viability

>  <TEST_VALUE>
6.27

$$$$
>  <MOLECULE>
Cc1cccc(C)c1OCC(=O)N[C@@H](Cc1ccccc1)[C@@H](O)C[C@H](Cc1ccccc1)NC(=O)[C@H](C(C)C)N1CCCNC1=O

>  <READOUT_NAME>
cell viability

>  <TEST_VALUE>
97.4

$$$$
>  <MOLECULE>
CCCCCCCCCCC[C@@H](C[C@@H]1OC(=O)[C@H]1CCCCCC)OC(=O)[C@H](CC(C)C)NC=O

>  <READOUT_NAME>
cell viability

>  <TEST_VALUE>
41.8

$$$$
>  <MOLECULE>
Cc1cc(Nc2ccc(NC(=O)c3ccc(Nc4ccnc5ccccc45)cc3)cc2)nc(N)n1

>  <READOUT_NAME>
cell viability

>  <TEST_VALUE>
0.48

$$$$

###

Quick reference for cell viability among some compounds
Test system: OCI-AML2
Test: cell viability relative to vehicle control; higher = less cytotoxic
Conditions: 10 µM; SRSF2 genotype: P95H/wt

>  <COMPOUND>
C[C@H](N=C(NC#N)Nc1cccc2ncccc12)c1ccccc1

>  <cell viability [%]>
108

$$$$
>  <COMPOUND>
N[C@@H](CSC(c1ccccc1)(c1ccccc1)c1ccccc1)C(=O)O

>  <cell viability [%]>
7.71

$$$$
>  <COMPOUND>
CCCCCCCCCCCCCCCC(=O)OC [Methyl palmitate]

>  <cell viability [%]>
102

$$$$
>  <COMPOUND>
O=C(O)c1cc(O)cc(Cl)c1 [3-chloro-5-hydroxybenzoic Acid]

>  <cell viability [%]>
96.9

$$$$
>  <COMPOUND>
CC(=O)O[C@@H]1CC[C@@]2(C)[C@@H](CC[C@]3(C)[C@@H]2C(=O)C=C2[C@@H]4[C@@H](C)[C@H](C)CC[C@]4(C)CC[C@]23C)[C@@]1(C)C(=O)O

>  <cell viability [%]>
87.1

$$$$
>  <COMPOUND>
CN1CCN(Cc2ccc(NC(=O)Nc3ccc(Oc4cc(NC(=O)C5CC5)ncn4)cc3)cc2C(F)(F)F)CC1

>  <cell viability [%]>
0.36

$$$$
>  <COMPOUND>
C[C@@H]1CC(=O)Nc2cccc(-c3ccc4c(c3)c(-c3cnn(C)c3)nn4C)c2N1

>  <cell viability [%]>
32.6

$$$$
>  <COMPOUND>
COc1cc(C=O)ccc1OC(C)=O

>  <cell viability [%]>
98.4

$$$$
>  <COMPOUND>
CN(C)CC(=O)Nc1ccc2[nH]c(=O)c3ccccc3c2c1

>  <cell viability [%]>
91.6

$$$$
